Source listed as ChEMBL document CHEMBL1137935.

# experimentSummary: Bioavailability after oral administration at a dose of 4 mg/kg in rat
# Format: ADME, organism-based
# runParameters: in vivo
propertyLabel: bioavailability (%)
Your answer is read as %, so omit the unit and give the number.

Input: Recorded bioavailability for OC1[C@@H](O)C(n2cnc3c(NC4CCOC4)ncnc32)O[C@@H]1CSc1ccccc1F (single isomer, unassigned) , please?
Output: 12.3

* * *

# experimentSummary: Elimination half-life after IV dosing at 1 mg/kg in rat
# Format: ADME, organism-based
# Set-up: dose 1 mg/kg, route intravenous
# runParameters: in vivo
propertyLabel: half-life (min)
Reply numerically in min, unit not repeated.

Input: Name the reported half-life value associated with the compound OC1[C@@H](O)C(n2cnc3c(NC4CCOC4)ncnc32)O[C@@H]1CSc1ccccc1F (single isomer, unassigned)
Output: 24

* * *

# experimentSummary: Cmax after oral administration at a dose of 2 mg/kg in rat
# Format: ADME, organism-based
# Parameters: dose 2 mg/kg, route oral
# runParameters: in vivo
propertyLabel: Cmax (ng/mL)
Write the value in ng/mL as a bare number.

Input: Entry under review: OC1[C@@H](O)C(n2cnc3c(NC4CCOC4)ncnc32)O[C@@H]1COc1ccccc1F (single isomer, unassigned) . Reported Cmax?
Output: 60.3

* * *

# measurementTarget: UniProt P47745
# Sequence (P47745 whole entry): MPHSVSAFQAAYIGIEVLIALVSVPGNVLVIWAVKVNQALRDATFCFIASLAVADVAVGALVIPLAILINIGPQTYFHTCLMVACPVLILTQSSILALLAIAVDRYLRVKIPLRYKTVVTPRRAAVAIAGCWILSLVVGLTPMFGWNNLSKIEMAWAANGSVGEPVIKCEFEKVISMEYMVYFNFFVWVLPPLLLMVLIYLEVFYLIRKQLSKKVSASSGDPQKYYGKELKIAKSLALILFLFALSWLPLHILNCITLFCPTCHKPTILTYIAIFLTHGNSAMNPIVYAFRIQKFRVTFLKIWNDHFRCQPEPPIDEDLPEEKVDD
# experimentSummary: Agonistic activity against adenosine A1 receptor in guinea pig isolated hearts
propertyLabel: pEC50
# log scale: pEC50 equals minus log10 of the concentration in mol/L

OC1[C@@H](O)C(n2cnc3c(NC4CCOC4)ncnc32)O[C@@H]1COc1ccccc1F (single isomer, unassigned) | 6.70

Input: Which pEC50 value is on record for OC1[C@@H](O)C(n2cnc3c(NC4CCOC4)ncnc32)O[C@@H]1CSc1ccccc1F (single isomer, unassigned) ?
Output: 5.90
